Assay: NCI Yeast Anticancer Drug Screen. Data for the mlh1 rad18 strain (AID 175)
Details: S. cerevisiae mlh1 rad18 strain growth inhibition; at 50.0 µM; hits give high values
Compounds without any hit were thinned out: in the full panel of roughly 79,000, 15% have a hit.
Entries and their growth inhibition values follow.
Please give a number only; it is taken to be in %.

The following molecules have reported results that may help.
**Query** Field request: growth inhibition | item: COc1c2c(c3c(c1OC)c(=O)c1ccccc1n3C)OCO2
**Result** 13.2

**Query** Field request: growth inhibition | item: O=C1C=CC=C/C1=C1\N=C(c2ccccc2OCC(=O)c2ccc(Br)cc2)SS1
**Result** -43.5

**Query** Field request: growth inhibition | item: O=S(=O)(O)c1cc(O)c2c(O)cc(S(=O)(=O)O)cc2c1
**Result** -4.7

**Query** Field request: growth inhibition | item: COc1ccc2c(c1C)CN1CCc3cc4c(cc3C1=C2)OCO4
**Result** 61.1

**Query** Field request: growth inhibition | item: O=c1oc(-c2ccccc2)nc2cc(Cl)ccc12
**Result** 1.35

**Query** Field request: growth inhibition | item: COc1ccc(/C=C2/NC(=S)N=C2Cl)cc1
**Result** -29

***
**Query** Field request: growth inhibition | item: CN(C)c1ccc(C2=C([O-])C(=C3C=CC(=[N+](C)C)C=C3)C2=O)cc1
**Result** -5.55

**Query** Field request: growth inhibition | item: CC[n+]1c(C)n(Cc2ccc(C(=O)O)cc2)c2cc(F)ccc21
**Result** 27.9

**Query** Field request: growth inhibition | item: Cc1ccc(OCC2OC(n3cnc4nc(N)nc(Cl)c43)CC2Oc2ccc(C)cc2)cc1 (stereo unspecified)
**Result** 2.6

**Query** Field request: growth inhibition | item: O=C1CC(c2ccccc2)NCCCCN2CC(CN1)C(C(O)c1ccccc1)C2=O (stereo unspecified)
**Result** -49

**Query** Field request: growth inhibition | item: NC(=S)N/N=C/c1cc([N+](=O)[O-])ccc1Cl
**Result** 10.2
